- Experimental System: P-gp in MES-Dx5 membranes (Homo sapiens, UniProt P08183)
- Sequence (P08183 whole entry): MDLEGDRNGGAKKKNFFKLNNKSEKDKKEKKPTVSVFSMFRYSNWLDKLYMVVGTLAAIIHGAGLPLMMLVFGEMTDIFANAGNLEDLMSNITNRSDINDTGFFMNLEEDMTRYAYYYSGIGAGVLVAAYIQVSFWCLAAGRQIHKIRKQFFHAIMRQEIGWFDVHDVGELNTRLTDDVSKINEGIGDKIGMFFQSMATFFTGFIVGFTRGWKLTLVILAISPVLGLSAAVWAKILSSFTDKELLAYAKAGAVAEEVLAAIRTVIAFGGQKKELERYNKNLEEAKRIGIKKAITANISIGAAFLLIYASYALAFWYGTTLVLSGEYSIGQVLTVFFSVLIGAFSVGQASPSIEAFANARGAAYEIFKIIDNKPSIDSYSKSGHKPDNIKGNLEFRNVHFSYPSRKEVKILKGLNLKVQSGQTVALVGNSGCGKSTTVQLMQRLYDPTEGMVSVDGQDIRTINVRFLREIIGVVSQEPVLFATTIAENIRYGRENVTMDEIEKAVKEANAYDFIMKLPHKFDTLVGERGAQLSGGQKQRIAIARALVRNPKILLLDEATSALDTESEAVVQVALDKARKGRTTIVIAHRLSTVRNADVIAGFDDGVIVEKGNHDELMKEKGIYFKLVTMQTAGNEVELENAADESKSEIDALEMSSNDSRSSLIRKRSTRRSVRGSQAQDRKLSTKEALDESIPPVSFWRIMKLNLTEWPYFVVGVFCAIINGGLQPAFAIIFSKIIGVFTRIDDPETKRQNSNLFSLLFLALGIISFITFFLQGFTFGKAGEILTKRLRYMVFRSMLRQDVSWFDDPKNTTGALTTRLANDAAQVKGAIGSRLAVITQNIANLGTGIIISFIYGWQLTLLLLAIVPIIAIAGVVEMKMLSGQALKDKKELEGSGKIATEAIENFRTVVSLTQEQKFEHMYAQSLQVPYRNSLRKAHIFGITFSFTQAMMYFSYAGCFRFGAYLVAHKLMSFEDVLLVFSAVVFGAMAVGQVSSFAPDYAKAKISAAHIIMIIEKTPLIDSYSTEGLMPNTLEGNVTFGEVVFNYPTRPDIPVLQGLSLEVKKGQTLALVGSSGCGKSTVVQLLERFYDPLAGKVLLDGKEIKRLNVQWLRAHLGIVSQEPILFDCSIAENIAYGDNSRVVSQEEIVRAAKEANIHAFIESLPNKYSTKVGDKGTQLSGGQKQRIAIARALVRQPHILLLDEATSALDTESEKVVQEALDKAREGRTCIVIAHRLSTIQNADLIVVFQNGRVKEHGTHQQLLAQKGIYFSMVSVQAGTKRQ
- Experimental Details: biochemical
- Protocol Conditions: inhibition of [3H]-vinblastine binding, single representative experiment, Figure 7B, 5 nM [3H]-vinblastine
Recorded Metric: Ki (µM)
Report the value in µM with no unit label.

Prompt line: Give reported Ki value for "COc1cccc2c1C(=O)c1c(O)c3c(c(O)c1C2=O)C[C@@](O)(C(=O)CO)C[C@@H]3O[C@H]1C[C@H](N)[C@H](O)[C@H](C)O1"
Response line: 112

Prompt line: Tell us which Ki value is on record for "CC(=O)O[C@H]1C(=O)[C@@]2(C)[C@H]([C@H](OC(=O)c3ccccc3)[C@]3(O)C[C@H](OC(=O)[C@H](O)[C@@H](NC(=O)c4ccccc4)c4ccccc4)C(C)=C1C3(C)C)[C@]1(OC(C)=O)CO[C@@H]1C[C@@H]2O"
Response line: 0.096

###

- Experimental System: P-gp (Homo sapiens, UniProt P08183)
- Sequence (P08183 whole entry): as above
- Experimental Details: in vitro
- Protocol Conditions: membrane preparations of MES-Dx5 cells (P-gp-expressing), probe [3H]-vinblastine, Ki, inhibition of [3H]-vinblastine binding to P-gp (mean), MES-Dx5 membranes, 3 h, 21C
Recorded Metric: Ki at 3 h

Prompt line: Print P-gp (Homo sapiens, UniProt P08183) Ki at 3 h for "CC(=O)O[C@H]1C(=O)[C@@]2(C)[C@H]([C@H](OC(=O)c3ccccc3)[C@]3(O)C[C@H](OC(=O)[C@H](O)[C@@H](NC(=O)c4ccccc4)c4ccccc4)C(C)=C1C3(C)C)[C@]1(OC(C)=O)CO[C@@H]1C[C@@H]2O" .
Response line: 400 nM

###

- System: MES-Dx5 cells
- Experimental Details: Reversal of MES-Dx5 resistance to cytotoxics by P-gp inhibitor (MTT assay, % maximal shift)
- Type: cell-based, human
- Protocol Conditions: Homo sapiens, read-out: EC50 of GF120918 to reverse resistance (shifts sensitivity by 50%) to taxotere; MES-Dx5, MTT 72 h, cytotoxic taxotere
Recorded Metric: pEC50
# log scale: pEC50 equals minus log10 of the concentration in mol/L

Prompt line: Name the recorded pEC50 of the item COc1cc2c(cc1OC)CN(CCc1ccc(NC(=O)c3cccc4c(=O)c5cccc(OC)c5[nH]c34)cc1)CC2 [GF120918] in your answer.
Response line: 7.24

###

- System: MES-Dx5 cells
- Experimental Details: Reversal of MES-Dx5 resistance to cytotoxics by P-gp inhibitor (MTT assay, % maximal shift)
- Type: cell-based, human
- Protocol Conditions: Homo sapiens, read-out: EC50 of GF120918 to reverse resistance (shifts sensitivity by 50%) to vinblastine; MES-Dx5, MTT 72 h, cytotoxic vinblastine
Recorded Metric: pEC50
Quick note: pEC50 means taking -log10 of the concentration in moles per liter.

Prompt line: Provide only the value of recorded pEC50 for COc1cc2c(cc1OC)CN(CCc1ccc(NC(=O)c3cccc4c(=O)c5cccc(OC)c5[nH]c34)cc1)CC2 [GF120918]
Response line: 7.72

###

- Experimental System: P-gp in MES-Dx5 membranes (Homo sapiens)
- Experimental Details: biochemical
- Protocol Conditions: inhibition of [3H]-vinblastine binding to P-gp (mean), MES-Dx5 membranes, 21C
Recorded Metric: pKi
The read-out pKi is expressed as -log10 of concentration in moles per litre.

Prompt line: Give recorded pKi. "COc1cccc2c1C(=O)c1c(O)c3c(c(O)c1C2=O)C[C@@](O)(C(=O)CO)C[C@@H]3O[C@H]1C[C@H](N)[C@H](O)[C@H](C)O1"
Response line: 5.16
